Each entry below carries its reported Human GLP-1 R activity (cAMP release), % activity with respect to control.
- System: Human GLP-1 receptor (Homo sapiens)
- Construct: The full-length cDNA was cloned in pcDNA3.1(+); expressed in transfected cells
- Sequence (P43220 24-463): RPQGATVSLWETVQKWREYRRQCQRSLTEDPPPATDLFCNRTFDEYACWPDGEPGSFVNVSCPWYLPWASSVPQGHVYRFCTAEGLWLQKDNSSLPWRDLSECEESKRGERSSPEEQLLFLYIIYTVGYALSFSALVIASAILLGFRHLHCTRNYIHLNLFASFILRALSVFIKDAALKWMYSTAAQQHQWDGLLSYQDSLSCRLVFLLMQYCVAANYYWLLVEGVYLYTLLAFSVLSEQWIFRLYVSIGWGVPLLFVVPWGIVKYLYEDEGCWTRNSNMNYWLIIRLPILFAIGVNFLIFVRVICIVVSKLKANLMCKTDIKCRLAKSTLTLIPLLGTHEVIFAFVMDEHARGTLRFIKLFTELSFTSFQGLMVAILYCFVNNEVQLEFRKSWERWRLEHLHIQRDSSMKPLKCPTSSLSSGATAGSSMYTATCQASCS
- Experimental Protocol: In vitro Human GLP-1 R agonist activity (cyclic AMP determination) in CHO/human GLP1R cells
- Format: cell-based
- Settings: 1 nM test compound
Reported Endpoint: Human GLP-1 R activity (cAMP release), % activity with respect to control (%)

[
  {
    "Compound": "CCc1cc(OC)ccc1-c1ccc(CC(CNC(CCCc2ccccc2F)C(N)=O)NC[C@H](CC(=O)O)NC(=O)[C@H](CO)NC(=O)[C@@H](NC(=O)C(C)(Cc2ccccc2F)NC(=O)[C@@H](NC(=O)CNC(=O)[C@H](CCC(N)=O)NC(=O)C(C)(C)NC(=O)[C@H](Cc2c[nH]cn2)NC(=O)OC)[C@H](C)O)[C@H](C)O)cc1 (single isomer, unassigned)",
    "System": "Human GLP-1 receptor (Homo sapiens)",
    "Scale Unit": "%",
    "Quantitative Result": 55
  },
  {
    "Compound": "CCc1cc(OC)ccc1-c1ccc(CC(NC(=O)[C@H](CC(=O)O)NC(=O)[C@H](CO)NC(=O)[C@@H](NC(=O)C(C)(Cc2ccccc2F)NC(=O)[C@@H](NC(=O)CNC(=O)C(CCC#N)NC(=O)C(C)(C)NC(=O)[C@@H](N)Cc2c[nH]cn2)[C@H](C)O)[C@@H](C)O)C(=O)NC(CCCc2ccccc2F)C(N)=O)cc1 (single isomer, unassigned)",
    "System": "Human GLP-1 receptor (Homo sapiens)",
    "Scale Unit": "%",
    "Quantitative Result": 39
  },
  {
    "Compound": "CCc1cc(OC)ccc1-c1ccc(CC(NC(=O)[C@H](CC(=O)O)NC(=O)[C@H](CO)NC(=O)[C@@H](NC(=O)C(C)(Cc2ccccc2F)NC(=O)[C@@H](NC(=O)CNC(=O)C(CCC#N)NC(=O)C(C)(C)NC(=O)[C@@H](N)Cc2c[nH]cn2)[C@H](C)O)[C@H](C)O)C(=O)NC(CCCc2ccccc2F)C(N)=O)cc1 (single isomer, unassigned)",
    "System": "Human GLP-1 receptor (Homo sapiens)",
    "Scale Unit": "%",
    "Quantitative Result": 55
  }
]

====

- Experimental Protocol: Stability in human plasma
- Assay type: in vitro ADME
- Settings: 2 μM peptidomimetic, pooled human plasma, 37° C.
Non-standard residues stand in square brackets, D forms with d. Residues, ends and D or L forms follow the SMILES beside them. ξ: configuration not given here. *: point of attachment. Leu(5,5,5,5',5',5'-F6) = N[C@@H](CC(C(F)(F)F)C(F)(F)F)C(=O)O; X4 = CCc1cc(OC)ccc1-c1ccc(CC(CNC(CCCc2ccccc2F)C(N)=O)N*)cc1; ξαMePhe(2-F) = CC(N)(Cc1ccccc1F)C(=O)O; aThr = C[C@H](O)[C@H](N)C(=O)O; Aib = CC(C)(N)C(=O)O
Reported Endpoint: half-life (t1/2) when incubated with human plasma

[
  {
    "Compound": "CCc1cc(OC)ccc1-c1ccc(CC(NC(=O)[C@H](CC(=O)O)NC(=O)[C@H](CO)NC(=O)[C@@H](NC(=O)[C@H](Cc2ccccc2)NC(=O)[C@@H](NC(=O)CNC(=O)C(CCC#N)NC(=O)C(C)(C)NC(=O)[C@@H](N)Cc2c[nH]cn2)[C@@H](C)O)[C@@H](C)O)C(=O)NC(CCCc2ccccc2F)C(N)=O)cc1 (single isomer, unassigned) [compound 77]",
    "Result": "(9) h"
  },
  {
    "Compound": "CCc1cc(OC)ccc1-c1ccc(CC(NC(=O)[C@H](CC(=O)O)NC(=O)[C@H](CO)NC(=O)[C@@H](NC(=O)C(C)(Cc2ccccc2F)NC(=O)[C@@H](NC(=O)CNC(=O)[C@H](CC(C(F)(F)F)C(F)(F)F)NC(=O)C(C)(C)NC(=O)[C@H](Cc2c[nH]cn2)NC(C)=O)[C@@H](C)O)[C@@H](C)O)C(=O)NC(CCCc2ccccc2)C(N)=O)cc1 (single isomer, unassigned) [compound 210]",
    "Result": "(9) h"
  },
  {
    "Compound": "CCc1cc(OC)ccc1-c1ccc(CC(CNC(CCCc2ccccc2F)C(N)=O)NC(=O)[C@H](CC(=O)O)NC(=O)[C@H](CO)NC(=O)[C@@H](NC(=O)C(C)(Cc2ccccc2F)NC(=O)[C@@H](NC(=O)CNC(=O)[C@H](CC(C(F)(F)F)C(F)(F)F)NC(=O)C(C)(C)NC(=O)[C@@H](N)Cc2c[nH]cn2)[C@H](C)O)[C@H](C)O)cc1 (stereo partly drawn) [compound 214] (H-H[Aib][Leu(5,5,5,5',5',5'-F6)]G[aThr][ξαMePhe(2-F)][aThr]SD-X4)",
    "Result": "(9) h"
  }
]

====

- Experimental Protocol: Stability in simulated gastric fluid
- Assay type: in vitro ADME
- Settings: 2 μM peptidomimetic, simulated gastric fluid pH 1.5, 37° C., 24 h
- Procedure: Reactions were terminated by the addition of TFA/H2O (15 mL, 10% (v/v)). […] The column was equilibrated with TFA/H20, at a flow rate of 1 mL/min.
Each entry below carries its reported % degradation of peptidomimetics in 24 h when incubated with simulated gastric fluid.
Reported Endpoint: % degradation of peptidomimetics in 24 h when incubated with simulated gastric fluid (%)

[
  {
    "Compound": "CCc1cc(OC)ccc1-c1ccc(CC(NC(=O)[C@H](CC(=O)O)NC(=O)[C@H](CO)NC(=O)[C@@H](NC(=O)C(C)(Cc2ccccc2F)NC(=O)[C@@H](NC(=O)CNC(=O)C(CCC#N)NC(=O)C(C)(C)NC(=O)[C@@H](N)Cc2c[nH]cn2)[C@@H](C)O)[C@H](C)O)C(=O)NC(CCCc2ccccc2F)C(N)=O)cc1 (single isomer, unassigned)",
    "Scale Unit": "%",
    "Quantitative Result": 41
  },
  {
    "Compound": "CCc1cc(OC)ccc1-c1ccc(CC(NC(=O)[C@H](CC(=O)O)NC(=O)[C@H](CO)NC(=O)[C@@H](NC(=O)[C@H](Cc2ccccc2)NC(=O)[C@@H](NC(=O)CNC(=O)C(CCC#N)NC(=O)C(C)(C)NC(=O)[C@@H](N)Cc2c[nH]cn2)[C@@H](C)O)[C@@H](C)O)C(=O)NC(CCCc2cc(C)cc(C)c2)C(N)=O)cc1 (single isomer, unassigned)",
    "Scale Unit": "%",
    "Quantitative Result": "00"
  },
  {
    "Compound": "CCc1cc(OC)ccc1-c1ccc(CC(NC(=O)[C@H](CC(=O)O)NC(=O)[C@H](CO)NC(=O)[C@@H](NC(=O)C(C)(Cc2ccccc2F)NC(=O)[C@@H](NC(=O)CNC(=O)[C@H](CC(C(F)(F)F)C(F)(F)F)NC(=O)C(C)(C)NC(=O)[C@@H](N)Cc2c[nH]cn2)[C@@H](C)O)[C@H](C)O)C(=O)NC(CCCc2ccccc2F)C(N)=O)cc1 (single isomer, unassigned)",
    "Scale Unit": "%",
    "Quantitative Result": "00"
  },
  {
    "Compound": "CCc1cc(OC)ccc1-c1ccc(CC(C(=O)N(C)C(CCCc2ccccc2)C(N)=O)N(C)C(=O)[C@H](CC(=O)O)N(C)C(=O)[C@H](CO)NC(=O)[C@@H](NC(=O)C(C)(Cc2ccccc2F)NC(=O)[C@@H](NC(=O)CNC(=O)C(CCC#N)NC(=O)C(C)(C)NC(=O)[C@@H](N)Cc2c[nH]cn2)[C@H](C)O)[C@H](C)O)cc1 (single isomer, unassigned)",
    "Scale Unit": "%",
    "Quantitative Result": 12
  },
  {
    "Compound": "CCc1cc(OC)ccc1-c1ccc(CC(NC(=O)[C@H](CC(=O)O)NC(=O)[C@H](CO)NC(=O)[C@@H](NC(=O)C(C)(Cc2ccccc2F)NC(=O)[C@@H](NC(=O)CNC(=O)C(CCC#N)NC(=O)C(C)(C)NC(=O)[C@@H](N)Cc2c[nH]cn2)[C@H](C)O)[C@@H](C)O)C(=O)NC(CCCc2ccccc2F)C(N)=O)cc1 (single isomer, unassigned)",
    "Scale Unit": "%",
    "Quantitative Result": 49
  },
  {
    "Compound": "CCc1cc(OC)ccc1-c1ccc(CC(NC(=O)[C@H](CC(=O)O)NC(=O)[C@H](CO)NC(=O)[C@@H](NC(=O)C(C)(Cc2ccccc2F)NC(=O)[C@@H](NC(=O)CNC(=O)C(CCC#N)NC(=O)C(C)(C)NC(=O)[C@H](Cc2c[nH]cn2)NC(C)=O)[C@@H](C)O)[C@@H](C)O)C(=O)NC(CCCc2ccccc2)C(N)=O)cc1 (single isomer, unassigned)",
    "Scale Unit": "%",
    "Quantitative Result": "00"
  },
  {
    "Compound": "CCc1cc(OC)ccc1-c1ccc(CC(NC(=O)[C@H](CC(=O)O)NC(=O)[C@H](CO)NC(=O)[C@@H](NC(=O)[C@H](Cc2ccccc2)NC(=O)[C@@H](NC(=O)CNC(=O)[C@H](CCC(N)=O)NC(=O)[C@H](CO)NC(=O)[C@@H](N)Cc2c[nH]cn2)[C@@H](C)O)[C@@H](C)O)C(=O)NC(CCCc2ccccc2C(F)(F)F)C(N)=O)cc1 (single isomer, unassigned)",
    "Scale Unit": "%",
    "Quantitative Result": 12
  },
  {
    "Compound": "CCc1cc(OC)ccc1-c1ccc(CC(NC(=O)[C@H](CC(=O)O)NC(=O)[C@H](CO)NC(=O)[C@@H](NC(=O)C(C)(Cc2ccccc2F)NC(=O)[C@@H](NC(=O)CNC(=O)C(CCC#N)NC(=O)C(C)(C)NC(=O)[C@@H](N)Cc2c[nH]cn2)[C@H](C)O)[C@H](C)O)C(=O)NC(CCCc2ccccc2F)C(N)=O)cc1 (single isomer, unassigned)",
    "Scale Unit": "%",
    "Quantitative Result": 43
  },
  {
    "Compound": "CCc1cc(OC)ccc1-c1ccc(CC(CNC(CCCc2ccccc2)C(N)=O)NC[C@H](CC(=O)O)NC(=O)[C@H](CO)NC(=O)[C@@H](NC(=O)C(C)(Cc2ccccc2F)NC(=O)[C@@H](NC(=O)CNC(=O)[C@H](CCC(N)=O)NC(=O)C(C)(C)NC(=O)[C@@H](N)Cc2c[nH]cn2)[C@H](C)O)[C@H](C)O)cc1 (single isomer, unassigned)",
    "Scale Unit": "%",
    "Quantitative Result": 43
  },
  {
    "Compound": "CCc1cc(OC)ccc1-c1ccc(CC(CNC(CCCc2ccccc2)C(N)=O)NC(=O)[C@H](CC(=O)O)NC(=O)[C@H](CO)NC(=O)[C@@H](NC(=O)C(C)(Cc2ccccc2F)NC(=O)[C@@H](NC(=O)CNC(=O)[C@H](CCC(N)=O)NC(=O)C(C)(C)NC(=O)[C@H](Cc2c[nH]cn2)NC(C)=O)[C@H](C)O)[C@H](C)O)cc1 (single isomer, unassigned)",
    "Scale Unit": "%",
    "Quantitative Result": 55
  },
  {
    "Compound": "CCc1cc(OC)ccc1-c1ccc(CC(NC(=O)[C@H](CC(=O)O)NC(=O)[C@H](CO)NC(=O)[C@@H](NC(=O)[C@H](Cc2ccccc2)NC(=O)[C@@H](NC(=O)CNC(=O)[C@H](CCC(N)=O)NC(=O)C2(C)CCCN2C(=O)[C@@H](N)Cc2c[nH]cn2)[C@@H](C)O)[C@@H](C)O)C(=O)NC(CCCc2ccc(Cl)cc2C)C(N)=O)cc1 (single isomer, unassigned)",
    "Scale Unit": "%",
    "Quantitative Result": 14
  }
]
